system: SN12C renal; test: NCI-60 one-dose screen, 48 h; conditions: 10 µM unless noted
Compounds without any hit were thinned out: in the full panel of roughly 83,000, 20% have a hit. Calls of active or inactive are those of the source. The calls were made as follows: active = growth percent below 10; inactive = the rest.
Outcomes you can answer with include only these: yes (1) for active, no (0) for inactive

Q: Test call, this compound: COc1cc2nc(-c3ccc(Cl)cc3)cc(OCCCN3CCC(O)CC3)c2cc1OC
Result: no (0)

Q: Test call, this compound: COc1ccc(C(=O)c2cc(C)c(OC)c(C)c2)c(OC)c1N(C(=O)CCl)C(=O)CCl
Result: no (0)

Q: Test call, this compound: NS(=O)(=O)c1ccc(CCN2C(=O)C3C(C2=O)C2(Cl)C(Cl)=C(Cl)C3(Cl)C2(Cl)Cl)cc1 (centres undefined)
Result: no (0)

Q: Test call, this compound: COc1ccc(/C=C/c2nc(Nc3ccc(S(=O)(=O)NC(C)=O)cc3)c3ccccc3n2)cc1
Result: no (0)

Q: Test call, this compound: O=C(Nc1ccc(-c2ccc3c(c2)NC(=O)/C3=C\c2ccc[nH]2)cc1)NC1CC1
Result: no (0)

Q: Test call, this compound: COc1cc2nc(-c3ccc(Cl)cc3)cc(OCCCN3CCCC3)c2cc1OC
Result: no (0)

Q: Test call, this compound: COc1ccc(CCn2cncc2-c2c[nH]c3ccccc23)cc1
Result: no (0)

Q: Test call, this compound: COc1cc(NC(C)CCCNC(=O)CCC(=O)NCCCNCCCCCCCCNCCCNC(=O)CCC(=O)NCCCC(C)Nc2cc(OC)cc3cccnc23)c2ncccc2c1 (centres undefined)
Result: no (0)

Q: Test call, this compound: N#CC(C(=O)/C(=N/NC(=O)c1ccccc1O)C(C#N)c1ccccc1)c1ccccc1 (centres undefined)
Result: no (0)

Q: Test call, this compound: Cc1ccc(C(=O)/C(=C\c2ccc([N+](=O)[O-])cc2)S(=O)Cc2ccc(F)cc2)cc1 (centres undefined)
Result: yes (1)

Q: Test call, this compound: Cc1ccc(S(=O)(=O)Nn2c3c(cc(-c4nc5ccccc5s4)c2=O)CCCCCC3)cc1
Result: no (0)

Q: Test call, this compound: COc1ccc(-c2nc(S(=O)(=O)c3ccccc3)c(S(=O)CC(=O)N3CCC(C)CC3)o2)cc1 (centres undefined)
Result: yes (1)

Q: Test call, this compound: C=C(C)[C@@H]1CC[C@]2(C(=O)N3CCN(C)CC3)CC[C@]3(C)[C@H](CC[C@@H]4[C@@]5(C)C/C(=C/c6cccnc6)C(=O)C(C)(C)[C@@H]5CC[C@]43C)[C@@H]12
Result: no (0)

Q: Test call, this compound: NC1=NN=C(N)C1=Cc1cc2ccccc2n2nnnc12
Result: no (0)

====

tested on: K-562 leukemia; assay: NCI-60 one-dose screen, 48 h; conditions: 10 µM unless noted
The panel holds about 83,000 compounds, 20% with a hit somewhere; the sample as a whole holds those more often. Calls of active or inactive are those of the source. How the source made its calls: active means growth percent below 10; inactive means the rest.
Outcomes you can answer with include only these: t = active, f = inactive

Q: Test call, this molecule: CCCCNC(=O)Oc1ccc(/C(=C(\C)c2ccccc2)c2ccc(OCCN3CCCCC3)cc2)cc1
Result: t

Q: Test call, this molecule: C=C1C(=O)O[C@H]2[C@H]1CC/C(COC(=O)NCCc1c[nH]c3ccc(OC)cc13)=C\CC[C@@]1(C)O[C@@H]21
Result: t

Q: Test call, this molecule: O=C(C[n+]1cccc2ccccc21)c1ccc(O)c(O)c1
Result: f

Q: Test call, this molecule: CCOc1ccc(/C=N/Nc2cc(C)nc3ccc(Br)cc23)cc1
Result: f

Q: Test call, this molecule: CN1CCN(c2ccc(NC3=C(Cl)C(=O)c4ncccc4C3=O)cc2C(F)(F)F)CC1
Result: t

Q: Test call, this molecule: CCOc1cccc(-c2nc(N)nc(Nc3ccccc3SSc3ccccc3Nc3nc(N)nc(-c4cccc(OCC)c4)n3)n2)c1
Result: f

Q: Test call, this molecule: COc1cc(/C=C\C(=O)O)ccc1OCc1ccccc1
Result: f

Q: Test call, this molecule: O=C(/C=C/c1ccc[nH]1)c1ccc(-n2ccc(C(F)(F)F)n2)c(F)c1
Result: f

Q: Test call, this molecule: COc1cc2nc(-c3ccc(Cl)cc3)cc(OCCCN3CCCCC3)c2cc1OC
Result: f

Q: Test call, this molecule: CCCC/C=N/NC(=S)NCc1ccccc1
Result: f

Q: Test call, this molecule: COc1cc2nc(-c3ccc(Cl)cc3)cc(OCCCN3CCOCC3)c2cc1OC
Result: f

Q: Test call, this molecule: O=S(=O)(NCCNc1nccc(-c2c(-c3cccc(O)c3)nc3occn23)n1)c1cccc(F)c1
Result: f

Q: Test call, this molecule: O=C1c2ccc3c4c(ccc(c24)C(=O)N1CCCNCc1ccccc1F)C(=O)N(CCCNCc1ccccc1F)C3=O
Result: t
